Molecular target: SMARCA4-HiBiT (Homo sapiens)
Construct: SMARCA4-HiBiT knock-in Hela monoclonal cell (CS3023226); host or cells: HeLa monoclonal knock-in line (CRISPR HiBiT knock-in at the endogenous locus, heterozygous)
Sequence (P51532 whole entry): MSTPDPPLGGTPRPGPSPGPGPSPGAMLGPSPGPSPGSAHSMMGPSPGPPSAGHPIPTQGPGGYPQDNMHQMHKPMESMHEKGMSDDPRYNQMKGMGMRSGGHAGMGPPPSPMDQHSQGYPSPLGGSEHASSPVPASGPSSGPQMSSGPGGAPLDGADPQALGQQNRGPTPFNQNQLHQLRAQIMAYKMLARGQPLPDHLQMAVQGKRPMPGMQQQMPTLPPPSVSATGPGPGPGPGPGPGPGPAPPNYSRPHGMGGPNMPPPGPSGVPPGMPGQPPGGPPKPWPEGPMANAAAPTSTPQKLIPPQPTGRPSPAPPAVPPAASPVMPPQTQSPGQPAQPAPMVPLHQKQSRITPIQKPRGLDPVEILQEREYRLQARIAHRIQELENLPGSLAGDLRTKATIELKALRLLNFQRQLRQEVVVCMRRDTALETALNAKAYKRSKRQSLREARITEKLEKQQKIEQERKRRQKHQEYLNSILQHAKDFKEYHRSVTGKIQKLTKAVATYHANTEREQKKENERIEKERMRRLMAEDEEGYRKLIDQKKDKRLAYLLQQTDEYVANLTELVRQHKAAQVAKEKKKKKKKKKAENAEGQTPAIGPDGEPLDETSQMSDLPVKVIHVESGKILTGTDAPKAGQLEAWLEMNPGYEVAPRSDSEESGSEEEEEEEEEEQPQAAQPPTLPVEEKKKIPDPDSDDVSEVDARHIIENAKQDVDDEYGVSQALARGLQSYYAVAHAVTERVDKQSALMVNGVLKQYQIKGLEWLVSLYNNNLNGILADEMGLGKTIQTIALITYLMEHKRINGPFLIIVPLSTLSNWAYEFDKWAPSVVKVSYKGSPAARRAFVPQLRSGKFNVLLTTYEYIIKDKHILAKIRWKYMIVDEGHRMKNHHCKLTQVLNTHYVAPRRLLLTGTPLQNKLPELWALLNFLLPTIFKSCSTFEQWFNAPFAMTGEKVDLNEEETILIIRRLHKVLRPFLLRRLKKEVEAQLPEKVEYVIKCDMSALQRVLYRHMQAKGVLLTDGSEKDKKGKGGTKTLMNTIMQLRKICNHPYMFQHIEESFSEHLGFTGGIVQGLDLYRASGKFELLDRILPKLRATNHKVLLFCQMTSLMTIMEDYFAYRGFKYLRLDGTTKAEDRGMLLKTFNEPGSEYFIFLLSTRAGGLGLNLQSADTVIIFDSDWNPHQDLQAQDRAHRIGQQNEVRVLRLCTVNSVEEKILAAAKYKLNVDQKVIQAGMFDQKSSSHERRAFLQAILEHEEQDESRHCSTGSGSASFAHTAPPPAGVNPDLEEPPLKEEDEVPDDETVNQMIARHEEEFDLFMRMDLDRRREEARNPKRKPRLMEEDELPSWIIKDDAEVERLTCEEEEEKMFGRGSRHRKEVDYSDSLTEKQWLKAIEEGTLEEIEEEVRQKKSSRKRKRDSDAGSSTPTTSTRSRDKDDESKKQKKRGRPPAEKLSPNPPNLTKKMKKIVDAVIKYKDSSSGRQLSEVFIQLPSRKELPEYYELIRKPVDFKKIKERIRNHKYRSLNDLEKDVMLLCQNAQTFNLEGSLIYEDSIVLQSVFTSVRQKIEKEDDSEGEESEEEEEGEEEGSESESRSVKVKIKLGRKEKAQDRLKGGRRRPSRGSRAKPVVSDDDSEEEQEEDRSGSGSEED
Assay: SMARCA4 HiBiT degradation assay in HeLa cells
Type: cell-based
Settings: 18 hours incubation, read-out: HeLa-HiBit-SM4 DC50
Please provide measured DC50 for the entries that follow.

Exercise: What value of DC50 has been recorded for this entry: CC1CC(CN2CCC(CN3CCN4c5cc(-c6ccccc6O)nnc5NC[C@H]4C3)CC2)CCN1c1ccc2c(c1)C(=O)N(C1CCC(=O)NC1=O)C2=O (stereo partly drawn)
Key: < 10 nM

Exercise: Bench note: what DC50 did C[C@@H]1C[C@H](CN2CCC(CN3CCN4c5cc(-c6ccccc6O)nnc5NC[C@H]4C3)CC2)CCN1c1cc2c(cc1F)C(=O)N(C1CCC(=O)NC1=O)C2=O (stereo partly drawn) show?
Key: < 10 nM

Exercise: Please report the recorded DC50 for O=C1CCC(N2C(=O)c3ccc(N4CCC(CN5CCC(S(=O)(=O)N6CCN7c8cc(-c9ccccc9O)nnc8NC[C@H]7C6)CC5)CC4)cc3C2=O)C(=O)N1 (stereo partly drawn) .
Key: 10 to 100 nM
